Below, each entry is listed with its recorded melting point.

Data point: COC(=O)Nc1ccc(NC(=O)CN(C)C)c([N+](=O)[O-])c1 ; melting point = 186 to 189 °C

Data point: CC(C)S(=O)(=O)NC(=O)Nc1ccc(Cl)c(Cl)c1 ; melting point = 151 to 154 °C

Data point: COc1cccc2c(-c3ccnc(N[C@H]4CC[C@H](O)CC4)n3)n[nH]c12 ; melting point = 243 to 245 °C

Data point: O=[N+]([O-])c1cccnc1Oc1nn(Cc2ccccc2F)c2ncccc12 ; melting point = 115 to 117 °C

Data point: O=C(OCc1ccccc1)C1(Nc2ccccc2)CCN(CCc2ccccc2)CC1 ; melting point = 76.7 °C

----------
Below, each entry is listed with its recorded melting point.

Below are worked cases with known answers.
CCCCN(CCCC)Cc1nnc(-c2ncn3c2CN(C)C(=O)c2ccccc2-3)o1
211 to 213 °C
COc1ccc(CC(C)=NO)cc1S(N)(=O)=O
193 to 194 °C
CC(=O)NCCCc1nc2cc(C3=NNC(=O)CC3C)ccc2[nH]1 (stereo not given)
244 to 246 °C
COC(=O)c1ccc(NC=O)cc1S(=O)(=O)NC(C)(C)C
113 to 114 °C
Cc1cc(C)c(C2C(=O)CCCC2=O)c(C)c1
196 to 198 °C
CN(C)C(=O)/C=C/c1cnc2c(NC(=O)c3c(Cl)cccc3Cl)cccc2c1
241 to 242 °C

Data point: CCC(=CCn1oc(=O)[nH]c1=O)c1ccc2c(Cc3ccccc3)c(CC)oc2c1 ; melting point = 118 to 120 °C

Data point: CC(=O)Nc1c(C(=O)c2ccccc2)[nH]c2cc(F)ccc12 ; melting point = 144 to 145 °C

Data point: COc1ccc(S(=O)(=O)C(C)(Cc2ccc3ccccc3c2)C(=O)NO)cc1 (stereo not given) ; melting point = 185 to 187 °C

Data point: CCCCc1oc2ccccc2c1C(=O)N(C)Cc1ccc2c(Br)c(OCc3nnn[nH]3)ccc2c1 ; melting point = 190 to 194 °C

----------
Test Readout: melting point

CCC(CC)Oc1cc(C)nc(Oc2c(C)cc(C)cc2C)c1N
96 to 98 °C
COC(=O)CCc1cc2cc(Cl)ccc2n1S(=O)(=O)c1ccc(C(C)(C)C)cc1
130 to 133 °C
CCOC(=O)C(Cc1ccc(O)cc1)Oc1ccc(F)cc1 (stereo unspecified)
80 to 81 °C
FC(F)C(F)(F)Sc1nc(-c2cccs2)c(-c2cccs2)[nH]1
162 to 164 °C
O=C1Nc2ccccc2C12COc1ccc3c(c12)N(Cc1ccccn1)ON3 (stereo unspecified)
180 to 182 °C
Cc1cc(-c2cccc(NC(=O)N[C@@H]3c4cc(C#N)ccc4OC(C)(C)[C@H]3O)c2)n(C)n1
142 to 152 °C
COC(=O)C(C)n1nnc2ccc(O)cc21 (stereo unspecified)
132 to 134 °C
Cc1cn(C2CC(O)C(CNCc3ccc(Cl)cc3)O2)c(=O)[nH]c1=O (stereo unspecified)
179 to 180 °C
C=C1CC2(C)C(CCC2(C)O)C2CCC3=CC(=O)CCC3(C)C12 (stereo unspecified)
155 to 157 °C
COCNC(=O)NC1CCCc2ccccc21 (stereo unspecified)
124 to 128 °C

Data point: c1ccc(C[C@@H]2CN3C(c4nnn[nH]4)=Nc4nc(C5CCCC5)[nH]c4C3=N2)cc1 ; melting point = 268 to 270 °C

Data point: O=C1c2ccccc2C(=O)N1CCSCc1ccco1 ; melting point = 59 to 61 °C

Data point: COC(CN(C)C(=O)Nc1cc(C(C)(C)C)on1)OC ; melting point = 80 to 84 °C

Data point: O=C1NC(=O)C2(CCCc3ncc(Cl)cc32)N1 (stereo unspecified) ; melting point = 230 to 233 °C

Data point: O=c1c(Cl)cn(-c2cc3[nH]c(=O)c(=O)[nH]c3cc2[N+](=O)[O-])cc1Cl ; melting point = > 300 °C

Data point: CC(C)CNc1nccc(Oc2ccc(NC(=O)c3cc(F)cc(N4CCOCC4)c3)c3ccccc23)n1 ; melting point = 96 to 97 °C

Data point: CC(C(=O)N(C)C)n1nc(-c2ccccc2)c(Cl)c1Cl (stereo unspecified) ; melting point = 102 to 103 °C

Data point: CCC(O)=C1SC(=S)N(c2ccccc2)C1=O ; melting point = 105 to 111 °C

Data point: N#Cc1c(Cl)c2cc(F)cnc2[nH]c1=O ; melting point = 272 °C

Data point: COc1ccc(/C=C/C(=O)N2CC(CCl)c3c2cc([N+](=O)[O-])c2cc(S(=O)(=O)NCCO)ccc32)cc1 (stereo unspecified) ; melting point = 250 to 251 °C

Data point: CCOC(=O)c1c(O)c2ccc(F)cc2c(=O)n1CC(C)(C)C ; melting point = 92 to 93 °C
